system_name: recombinant soluble homotrimeric HA of A/chicken/Vietnam/NCVD-016/08 (H5N1) (Influenza A virus A/chicken/Vietnam/NCVD-016/2008(H5N1))
assay_details: trimeric HA microarray, transfection supernatant set 5
experimental_context: remark: other sources report otherwise
readout: Trimeric HA Binding: RLU (RLU)
All answers are understood in RLU, so give the number only.

Data request: Item TCN-545 (5082_I15) (antibody, V domains shown) VH: QVQLQQWGAGLLKPSETLSLSCAVFGGSFSDYYWTWIRQPPGKGLEWIGEIKHSGRTNYNPSLESRVTISVDTSKNQFSLKLSSVTAADTAIYYCARGTDPDTEGYCRSGSCSAFDFWGQGTLVTVSS VL: EIVLTQSPGTLSLSPGERATLSCRASHFVNYRSLAWYQQTPGQVPRLLIYGASTRATGIPDRFSGSGSGTDFTLTISRLEPEDFAVYFCQQYGGSPRYTFGQGTRLEIK has what recorded Trimeric HA Binding: RLU?
Data returned: 3230
